Test system: 786-O
Test: Euclidean distance of Cell Painting phenotypic profile (signed KS, 77 features) to DMSO centroid (dimensionless distance); 5 or 10 uM (library dependent); higher = stronger phenotypic change vs DMSO (phenoactivity)
Details: 48 h
Structures can show the parent of a compound that is named as a salt.
Label criterion not met if Euclidean distance falls below 1; label criterion met in every other case.

INSERT INTO results (compound, class) VALUES
  ('CCN[C@H]1C[C@H](C)S(=O)(=O)c2sc(S(N)(=O)=O)cc21 [Dorzolamide HCl]', 'criterion met'),
  ('CCn1c2ccccc2c2cc(Nc3ccnc(NCCCN4CCOCC4)n3)ccc21', 'criterion met'),
  ('CC(C)C[C@H](NC(=O)[C@@H](O)[C@H](N)Cc1ccccc1)C(=O)O', 'criterion met'),
  ('Clc1ccc(CCC(Cn2ccnc2)Sc2c(Cl)cccc2Cl)cc1 (centres undefined)', 'criterion met'),
  ('CCN(CC)CC(=O)Nc1c(C)cccc1C', 'criterion met'),
  ('O=C(NCC(O)CO)c1c(I)c(C(=O)NCC(O)CO)c(I)c(N(CCO)C(=O)CO)c1I (centres undefined)', 'criterion not met'),
  ('Cc1cc(Nc2ccc(NC(=O)c3ccc(Nc4ccnc5ccccc45)cc3)cc2)nc(N)n1', 'criterion met'),
  ('N#Cc1ccc2[nH]cc(CCCCN3CCN(c4ccc5oc(C(N)=O)cc5c4)CC3)c2c1 [Vilazodone HCl]', 'criterion met'),
  ('Cc1nnc(SCC2=C(C(=O)O)N3C(=O)[C@@H](NC(=O)Cn4cnnn4)[C@H]3SC2)s1', 'criterion met'),
  ('C#C[C@]1(O)CC[C@H]2[C@@H]3CCc4cc(O)ccc4[C@H]3CC[C@@]21C', 'criterion met'),
  ('CCCNC(C)C(=O)Nc1ccccc1C (centres undefined)', 'criterion met'),
  ('O=C(OC(C(F)(F)F)C(F)(F)F)N1CCN(Cc2ccc(C(F)(F)F)cc2N2CCCC2)CC1', 'criterion met'),
  ('C=CCNC(N)=S', 'criterion met'),
  ('CSCC1CN(/N=C/c2ccc([N+](=O)[O-])o2)C(=O)O1 (centres undefined)', 'criterion not met'),
  ('Cc1cc(S(=O)(=O)O)c2c(C)ccc(C(C)C)cc1-2 [Sodium gualenate]', 'criterion met'),
  ('CN1CCC(NC(=O)c2cc(-c3c(O)cc(O)cc3Oc3ccc([N+](=O)[O-])cc3)on2)CC1', 'criterion met'),
  ('Cn1c(=O)cc(N2CCC[C@@H](N)C2)n(Cc2cc(F)ccc2C#N)c1=O [Trelagliptin succinate]', 'criterion not met'),
  ('CC(C(=O)O)c1ccc(-c2ccccc2)c(F)c1 (centres undefined)', 'criterion not met'),
  ('NS(=O)(=O)c1cc(Cl)c(Cl)c(S(N)(=O)=O)c1 [Dichlorphenamide]', 'criterion not met');

The reported numbers originate from the supplement of paper PMC10127200.
